- Experimental Target: OATP1B1 (Homo sapiens)
- Experiment Notes: Pyranine uptake inhibition in A431 cells overexpressing OATP1B1
- Experimental: IC50 values were calculated based on transport inhibition measurements (see below) by Hill1 fit, using the Origin Pro8.6 software (OriginLab Corporation, Northampton, MA, US). 20 mM stocks in DMSO were stored for further usage at −20 °C. […] The uptake of pyranine was measured on microplates based on the method developed by us previously.[60],[61] […] IC50 values were calculated by Hill1 fit, using the (OriginLab Corporation, Northampton, MA, US).
pIC50: −log10 of the molar value.
Each entry gets not met if its pIC50 stays under 5, and met if its pIC50 is 5 or above.

Recorded results for 10 molecules are shown here.
>>> class_assignment("C[C@@]12CCC3c4cc(I)c(O)cc4CCC3C1CCC2=O (stereo partly drawn) [Compound 7]")
"not met"
>>> class_assignment("CCOP(=O)(OCC)c1cc2c(cc1O)CCC1C2CC[C@@]2(C)C(=O)CCC12 (stereo partly drawn) [Compound 13]")
"met"
>>> class_assignment("CCOP(=O)(OCC)c1c(OC)ccc2c1CCC1C2CC[C@@]2(C)C(=O)CCC12 (stereo partly drawn) [Compound 16]")
"not met"
>>> class_assignment("C[C@@]12CCC3c4cc(Cl)c(O)cc4CCC3C1CCC2=O (stereo partly drawn) [Compound 9]")
"not met"
>>> class_assignment("C[C@@]12CCC3c4ccc(OCc5ccccc5)cc4CCC3C1CCC2=O (stereo partly drawn) [Compound 3]")
"not met"
>>> class_assignment("C[C@@]12CCC3c4cc(Br)c(O)cc4CCC3C1CCC2=O (stereo partly drawn) [Compound 5]")
"not met"
>>> class_assignment("C[C@@]12CCC3c4ccc(O)c(Br)c4CCC3C1CCC2=O (stereo partly drawn) [Compound 6]")
"met"
>>> class_assignment("C[C@@]12CCC3c4ccc(O)c(Cl)c4CCC3C1CCC2=O (stereo partly drawn) [Compound 10]")
"not met"
>>> class_assignment("CCOP(=O)(OCC)c1c(OCc2ccccc2)ccc2c1CCC1C2CC[C@@]2(C)C(=O)CCC12 (stereo partly drawn) [Compound 12]")
"met"
>>> class_assignment("COc1ccc2c(c1)CCC1C2CC[C@@]2(C)C(=O)CCC12 (stereo partly drawn) [Compound 2]")
"not met"

Identify whether the reported pIC50 of the following molecule is 5 or greater: CCOP(=O)(OCC)c1c(O)ccc2c1CCC1C2CC[C@@]2(C)C(=O)CCC12 (stereo partly drawn) [Compound 14]
not met

Identify whether the reported pIC50 of the following molecule is 5 or greater: CCOP(=O)(OCC)c1cc2c(cc1OCc1ccccc1)CCC1C2CC[C@@]2(C)C(=O)CCC12 (stereo partly drawn) [Compound 11]
met

Identify whether the reported pIC50 of the following molecule is 5 or greater: COc1cc2c(cc1Br)C1CC[C@@]3(C)C(=O)CCC3C1CC2 (stereo partly drawn) [Compound 4]
not met

###

- Experimental Target: UniProtKB O94956
- Experiment Notes: Pyranine uptake inhibition in A431 cells overexpressing OATP2B1
- Details: human, pH 5.5
Quantity Measured: IC50 at 15 min (µM)
Please reply with the bare figure in µM and do not write the unit itself.

Please give the documented IC50 at 15 min of C[C@@]12CCC3c4ccc(O)c(Cl)c4CCC3C1CCC2=O (stereo partly shown)
10.5

###

- Experimental Target: OATP1B1 (Homo sapiens, UniProt Q9Y6L6)
- Sequence (Q9Y6L6 1-691): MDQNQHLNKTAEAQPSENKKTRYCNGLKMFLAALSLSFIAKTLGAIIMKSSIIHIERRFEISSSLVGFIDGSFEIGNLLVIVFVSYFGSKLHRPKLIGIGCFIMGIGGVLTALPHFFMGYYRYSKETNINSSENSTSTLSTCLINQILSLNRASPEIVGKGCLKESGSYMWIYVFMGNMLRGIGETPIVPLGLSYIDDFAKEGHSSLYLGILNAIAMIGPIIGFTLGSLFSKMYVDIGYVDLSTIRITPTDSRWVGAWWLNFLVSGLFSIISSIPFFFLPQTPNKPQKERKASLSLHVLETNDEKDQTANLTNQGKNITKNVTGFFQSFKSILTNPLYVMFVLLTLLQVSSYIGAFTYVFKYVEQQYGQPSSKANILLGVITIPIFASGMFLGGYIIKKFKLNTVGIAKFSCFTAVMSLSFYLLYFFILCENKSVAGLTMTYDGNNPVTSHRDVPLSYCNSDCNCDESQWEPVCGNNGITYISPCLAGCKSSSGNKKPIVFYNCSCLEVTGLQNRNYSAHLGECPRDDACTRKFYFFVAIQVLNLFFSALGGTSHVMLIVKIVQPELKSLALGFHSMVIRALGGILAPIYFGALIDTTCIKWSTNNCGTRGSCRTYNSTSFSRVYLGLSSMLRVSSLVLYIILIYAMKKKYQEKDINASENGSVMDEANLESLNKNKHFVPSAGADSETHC
- Experiment Notes: Pyranine uptake inhibition in A431 cells overexpressing OATP1B1
- Details: statement covers both OATP1B1 and OATP1B3
- Method: IC50 values were calculated based on transport inhibition measurements (see below) by Hill1 fit, using the Origin Pro8.6 software (OriginLab Corporation, Northampton, MA, US). 20 mM stocks in DMSO were stored for further usage at −20 °C. […] The uptake of pyranine was measured on microplates based on the method developed by us previously.[60],[61] […] IC50 values were calculated by Hill1 fit, using the (OriginLab Corporation, Northampton, MA, US).
Quantity Measured: activity on OATP1B1 and OATP1B3 (in words)

>>> recorded_value("CCOP(=O)(OCC)c1c(OC)ccc2c1CCC1C2CC[C@@]2(C)C(=O)CCC12 (stereo partly shown) [Compound 16]")
"rather inactive"
>>> recorded_value("CCOP(=O)(OCC)c1cc2c(cc1OCc1ccccc1)CCC1C2CC[C@@]2(C)C(=O)CCC12 (stereo partly shown) [Compound 11]")
"highly active"
>>> recorded_value("CCOP(=O)(OCC)c1c(OCc2ccccc2)ccc2c1CCC1C2CC[C@@]2(C)C(=O)CCC12 (stereo partly shown) [Compound 12]")
"highly active"
>>> recorded_value("CCOP(=O)(OCC)c1cc2c(cc1OC)CCC1C2CC[C@@]2(C)C(=O)CCC12 (stereo partly shown) [Compound 15]")
"rather inactive"

###

- Experimental Target: OATP2B1 (Homo sapiens)
- Sequence (O94956 1-709): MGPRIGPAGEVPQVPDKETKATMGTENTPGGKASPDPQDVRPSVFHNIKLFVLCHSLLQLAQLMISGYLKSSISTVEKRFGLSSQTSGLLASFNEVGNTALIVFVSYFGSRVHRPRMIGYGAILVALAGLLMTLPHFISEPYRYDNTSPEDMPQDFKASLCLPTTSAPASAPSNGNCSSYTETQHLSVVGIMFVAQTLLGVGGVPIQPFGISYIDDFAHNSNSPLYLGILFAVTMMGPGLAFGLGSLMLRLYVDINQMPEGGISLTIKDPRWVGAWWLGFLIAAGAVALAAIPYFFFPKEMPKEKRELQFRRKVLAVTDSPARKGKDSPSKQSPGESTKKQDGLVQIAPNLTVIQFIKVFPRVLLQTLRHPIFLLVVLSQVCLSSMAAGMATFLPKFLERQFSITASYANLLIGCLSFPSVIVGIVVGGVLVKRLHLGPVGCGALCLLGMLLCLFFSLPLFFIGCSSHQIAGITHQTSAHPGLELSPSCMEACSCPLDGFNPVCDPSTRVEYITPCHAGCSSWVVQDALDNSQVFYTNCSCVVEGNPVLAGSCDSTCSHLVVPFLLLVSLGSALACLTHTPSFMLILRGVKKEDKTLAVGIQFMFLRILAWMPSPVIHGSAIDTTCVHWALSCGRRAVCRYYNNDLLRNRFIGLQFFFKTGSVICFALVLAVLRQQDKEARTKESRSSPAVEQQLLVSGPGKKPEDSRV
- Experiment Notes: Pyranine uptake inhibition in A431 cells overexpressing OATP2B1
Quantity Measured: pIC50
Note on units: pIC50 is unitless, being -log10 of a concentration expressed in mol/L.

Solved entries:
>>> recorded_value("C[C@@]12CCC3c4ccc(OCc5ccccc5)cc4CCC3C1CCC2=O (stereo partly shown)")
5.14
>>> recorded_value("CCOP(=O)(OCC)c1cc2c(cc1OCc1ccccc1)CCC1C2CC[C@@]2(C)C(=O)CCC12 (stereo partly shown)")
6.74
>>> recorded_value("COc1cc2c(cc1Br)C1CC[C@@]3(C)C(=O)CCC3C1CC2 (stereo partly shown)")
5.08
>>> recorded_value("CCOP(=O)(OCC)c1cc2c(cc1O)CCC1C2CC[C@@]2(C)C(=O)CCC12 (stereo partly shown)")
5.50
>>> recorded_value("C[C@@]12CCC3c4ccc(O)c(Br)c4CCC3C1CCC2=O (stereo partly shown)")
5.53

Please give the documented pIC50 of COc1ccc2c(c1)CCC1C2CC[C@@]2(C)C(=O)CCC12 (stereo partly shown)
5.27

Please give the documented pIC50 of CCOP(=O)(OCC)c1c(O)ccc2c1CCC1C2CC[C@@]2(C)C(=O)CCC12 (stereo partly shown)
4.99

src = paper PMC8243326
